Could you please report measured pKi for the items listed next?
# Experimental target: UniProtKB P34972
Give bare numbers, as −log10 of the molar value.

CCCc1cc(O)c2c(c1)OC(C)(C)[C@@H]1CCC(C)=C[C@@H]21 [THCV, ∆^9-tetrahydrocannabivarin] = 7.33
C=C(C)[C@@H]1CCC(C)=C[C@H]1c1c(O)cc(CCCCC)c(C(=O)O)c1O = 7.92
C=C(C)[C@@H]1CCC(C)=C[C@H]1c1c(O)cc(CCC)cc1O = 6.85

Input line: // returns reported pKi for input CCCCCc1cc2c(c(O)c1C(=O)O)[C@@H]1C=C(C)CC[C@H]1C(C)(C)O2 [∆^9-THCa, ∆^9-tetrahydrocannabinolic acid]
Output line: 8.89

###

Record: Ki reported on hCB1R (Homo sapiens, UniProt P21554).
Sequence (P21554 whole entry): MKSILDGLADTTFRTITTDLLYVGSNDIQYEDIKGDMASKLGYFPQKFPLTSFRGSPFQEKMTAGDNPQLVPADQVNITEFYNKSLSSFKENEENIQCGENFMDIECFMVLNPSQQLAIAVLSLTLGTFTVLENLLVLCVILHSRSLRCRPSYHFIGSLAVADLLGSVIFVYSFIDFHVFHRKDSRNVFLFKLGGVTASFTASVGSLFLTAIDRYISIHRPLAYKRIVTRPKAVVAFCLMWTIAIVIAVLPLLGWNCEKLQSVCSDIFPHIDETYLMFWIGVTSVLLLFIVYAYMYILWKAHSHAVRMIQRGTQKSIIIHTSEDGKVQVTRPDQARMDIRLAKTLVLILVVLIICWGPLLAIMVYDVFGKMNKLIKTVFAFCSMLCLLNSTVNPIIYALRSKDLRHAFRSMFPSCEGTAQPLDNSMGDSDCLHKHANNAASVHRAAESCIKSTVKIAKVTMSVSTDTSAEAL

CCCCCc1cc(O)c2c(c1)OC(C)(CCC=C(C)C)C=C2 (stereo not drawn) = 11 nM
CCCCCc1cc2c(c(O)c1C(=O)O)[C@@H]1C=C(C)CC[C@H]1C(C)(C)O2 [∆^9-THCa, ∆^9-tetrahydrocannabinolic acid] = 620 nM
C=C(C)[C@@H]1CCC(C)=C[C@H]1c1c(O)cc(CCCCC)c(C(=O)O)c1O = > 10000 nM
CCCCCc1cc(O)c(C/C=C(\C)CCC=C(C)C)c(O)c1 = 1300 nM

Please give Ki, item by item, for the list that follows.
1. C=C(C)[C@@H]1CCC(C)=C[C@H]1c1c(O)cc(CCC)cc1O
2. CCCc1cc(O)c2c(c1)OC(C)(C)[C@@H]1CCC(C)=C[C@@H]21 [THCV, ∆^9-tetrahydrocannabivarin]

Output line:
["> 10000 nM", "22 nM"]

###

# Experimental target: hCB2R (Homo sapiens, UniProt P34972)
# Sequence (P34972 whole entry): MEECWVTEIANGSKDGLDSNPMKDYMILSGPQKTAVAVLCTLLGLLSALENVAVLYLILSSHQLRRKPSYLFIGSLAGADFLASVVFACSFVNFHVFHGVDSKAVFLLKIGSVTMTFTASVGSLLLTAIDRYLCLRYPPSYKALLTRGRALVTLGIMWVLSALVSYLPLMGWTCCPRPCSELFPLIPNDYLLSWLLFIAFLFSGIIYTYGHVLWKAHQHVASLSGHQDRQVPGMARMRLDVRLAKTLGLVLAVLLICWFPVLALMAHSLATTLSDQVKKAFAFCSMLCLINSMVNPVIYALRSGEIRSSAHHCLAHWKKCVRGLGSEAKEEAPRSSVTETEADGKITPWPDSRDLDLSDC
# Run description: hCB2R-dependent inhibition of FSK-stimulated cAMP accumulation (HitHunter CHO cells)
# Type: cell-based
# Set-up: expressed in transfected cells; membranes
# Cond: HitHunter CHO hCB2R cells, 90 min; 95% CI in brackets; read-out: hCB2R EC50, inhibition of FSK-stimulated cAMP accumulation
I'd be grateful if you could share measured pEC50 for these entries.
Give bare numbers, as −log10 of the molar value.

Record pEC50 per entry; entries follow.
1. C=C(C)[C@@H]1CCC(C)=C[C@H]1c1c(O)cc(CCCCC)c(C(=O)O)c1O
2. C=C(C)[C@@H]1CCC(C)=C[C@H]1c1c(O)cc(CCC)cc1O
3. CCCCCc1cc(O)c2c(c1)OC(C)(CCC=C(C)C)C=C2 (stereo not shown)
4. CCCCCc1cc(O)c(C/C=C(\C)CCC=C(C)C)c(O)c1

Output line:
1: 6.85; 2: 8.30; 3: 8.15; 4: 6.89

###

# Experimental target: hCB1R (Homo sapiens, UniProt P21554)
# Construct: expressed in transfected cells; membranes
# Run description: cell-based
# Type: cell-based
pEC50: −log10 of the molar value.
Measurement type: pEC50

Input line: pEC50 for CCCCCc1cc2c(c(O)c1C(=O)O)[C@@H]1C=C(C)CC[C@H]1C(C)(C)O2 [∆^9-THCa, ∆^9-tetrahydrocannabinolic acid] ?
Output line: < 5.00

###

# Experimental target: hCB2R (Homo sapiens)
# Run description: hCB2R-dependent recruitment of βarrestin2 (PathHunter CHO cells)
# Format: cell-based
# Parameters: expressed in transfected cells; membranes
# Cond: CHO
Field: Emax. Provide a value for each of the molecules that follow.
Give bare numbers, in %.

Look over these answered cases.
CCCCCc1cc(O)c(C/C=C(\C)CCC=C(C)C)c(O)c1 = 22
C=C(C)[C@@H]1CCC(C)=C[C@H]1c1c(O)cc(CCC)cc1O = 64

For each of the molecules below, state Emax.
1. CCCCCc1cc(O)c2c(c1)OC(C)(C)[C@@H]1CCC(C)=C[C@@H]21 [∆^9-THC, ∆^9-tetrahydrocannabinol, reference compound]
2. CCCCCc1cc2c(c(O)c1C(=O)O)[C@@H]1C=C(C)CC[C@H]1C(C)(C)O2 [∆^9-THCa, ∆^9-tetrahydrocannabinolic acid]

Output line:
46
15

###

# Experimental target: hCB1R (Homo sapiens, UniProt P21554)
# Construct: expressed in transfected cells; membranes
# Run description: cell-based
# Assay type: cell-based
# Cond: HitHunter CHO hCB1R cells, 90 min; 95% CI in brackets; read-out: hCB1R EC50, inhibition of FSK-stimulated cAMP accumulation
Measurement type: pEC50
Give bare numbers, as −log10 of the molar value.

Some solved entries appear below for comparison.
C=C(C)[C@@H]1CCC(C)=C[C@H]1c1c(O)cc(CCCCC)c(C(=O)O)c1O [CBDa, cannabidiolic acid] = 7.52
CCCCCc1cc(O)c(C/C=C(\C)CCC=C(C)C)c(O)c1 [CBG, cannabigerol] = 6.92
CCCCCc1cc(O)c2c(c1)OC(C)(CCC=C(C)C)C=C2 (centres unmarked) [CBC, cannabichromene] = 6.72

Input line: Value lookup for pEC50; key = CCCc1cc(O)c2c(c1)OC(C)(C)[C@@H]1CCC(C)=C[C@@H]21 [THCV, ∆^9-tetrahydrocannabivarin]
Output line: 6.59

###

For each of the compounds below, state its hCB1R Emin.
# Experimental target: hCB1R (Homo sapiens)
# Construct: expressed in transfected cells; membranes
# Run description: biochemical
# Format: binding
Marks after values point to notes of the source that are not given here.

The examples below pair each entry with its known result.
C=C(C)[C@@H]1CCC(C)=C[C@H]1c1c(O)cc(CCC)cc1O = 96 ± 5.1*^ %
CCCCCc1cc(O)c2c(c1)OC(C)(CCC=C(C)C)C=C2 (stereo not shown) = 55 ± 3.7*^ %
CCCc1cc(O)c2c(c1)OC(C)(C)[C@@H]1CCC(C)=C[C@@H]21 [THCV, ∆^9-tetrahydrocannabivarin] = 54 ± 4.1*^ %
CCCCCCC(C)(C)c1ccc([C@@H]2C[C@H](O)CC[C@H]2CCCO)c(O)c1 [CP55,940, reference compound] = 0.0 ± 5.2%
C=C(C)[C@@H]1CCC(C)=C[C@H]1c1c(O)cc(CCCCC)c(C(=O)O)c1O = 96 ± 6.5*^ %
CCCCCc1cc(O)c(C/C=C(\C)CCC=C(C)C)c(O)c1 = 49 ± 7.2*^ %

Turning now to a further compound:
Input line: Form field: reported hCB1R Emin of CCCCCc1cc2c(c(O)c1C(=O)O)[C@@H]1C=C(C)CC[C@H]1C(C)(C)O2 [∆^9-THCa, ∆^9-tetrahydrocannabinolic acid]
Output line: 67 ± 11*^ %

###

# Experimental target: UniProt P34972
# Run description: hCB2R-dependent inhibition of FSK-stimulated cAMP accumulation (HitHunter CHO cells)
# Assay type: cell-based
# Set-up: expressed in transfected cells; membranes
# Cond: CHO
Can you tell me Emax for the items I'm about to list?
One number for each entry, in %.

Sample records with Emax:
CCCCCc1cc(O)c(C/C=C(\C)CCC=C(C)C)c(O)c1 = 39
CCCCCc1cc2c(c(O)c1C(=O)O)[C@@H]1C=C(C)CC[C@H]1C(C)(C)O2 [∆^9-THCa, ∆^9-tetrahydrocannabinolic acid] = 95
CCCCCc1cc(O)c2c(c1)OC(C)(C)[C@@H]1CCC(C)=C[C@@H]21 [∆^9-THC, ∆^9-tetrahydrocannabinol, reference compound] = 76
C=C(C)[C@@H]1CCC(C)=C[C@H]1c1c(O)cc(CCC)cc1O = 51

// input: 4 molecules below; output: Emax for each
1. C=C(C)[C@@H]1CCC(C)=C[C@H]1c1c(O)cc(CCCCC)cc1O [CBD, cannabidiol, reference compound]
2. CCCc1cc(O)c2c(c1)OC(C)(C)[C@@H]1CCC(C)=C[C@@H]21 [THCV, ∆^9-tetrahydrocannabivarin]
3. C=C(C)[C@@H]1CCC(C)=C[C@H]1c1c(O)cc(CCCCC)c(C(=O)O)c1O
4. CCCCCc1cc(O)c2c(c1)OC(C)(CCC=C(C)C)C=C2 (centres unmarked)

Output line:
1: 61; 2: 79; 3: 32; 4: 76

###

# Experimental target: hCB1R (Homo sapiens)
# Construct: expressed in transfected cells; membranes
# Run description: cell-based
# Cond: CHO; read-out: hCB1R Emax, recruitment of βarrestin2
Provide the reported Emax of each item.

C=C(C)[C@@H]1CCC(C)=C[C@H]1c1c(O)cc(CCCCC)c(C(=O)O)c1O [CBDa, cannabidiolic acid] = 0.1%
CCCCCc1cc(O)c2c(c1)OC(C)(CCC=C(C)C)C=C2 (stereo not shown) [CBC, cannabichromene] = 6.9%
CCCCCc1cc2c(c(O)c1C(=O)O)[C@@H]1C=C(C)CC[C@H]1C(C)(C)O2 [∆^9-THCa, ∆^9-tetrahydrocannabinolic acid] = 4.1%

Input line: Could you share which Emax value was measured for CCCc1cc(O)c2c(c1)OC(C)(C)[C@@H]1CCC(C)=C[C@@H]21 [THCV, ∆^9-tetrahydrocannabivarin] ?
Output line: 0.05%
